Origin of values: ChEMBL document CHEMBL2069230

# system.under.test: Prostaglandin G/H synthase 1 (Homo sapiens) (UniProt P23219)
# Sequence (P23219 whole entry): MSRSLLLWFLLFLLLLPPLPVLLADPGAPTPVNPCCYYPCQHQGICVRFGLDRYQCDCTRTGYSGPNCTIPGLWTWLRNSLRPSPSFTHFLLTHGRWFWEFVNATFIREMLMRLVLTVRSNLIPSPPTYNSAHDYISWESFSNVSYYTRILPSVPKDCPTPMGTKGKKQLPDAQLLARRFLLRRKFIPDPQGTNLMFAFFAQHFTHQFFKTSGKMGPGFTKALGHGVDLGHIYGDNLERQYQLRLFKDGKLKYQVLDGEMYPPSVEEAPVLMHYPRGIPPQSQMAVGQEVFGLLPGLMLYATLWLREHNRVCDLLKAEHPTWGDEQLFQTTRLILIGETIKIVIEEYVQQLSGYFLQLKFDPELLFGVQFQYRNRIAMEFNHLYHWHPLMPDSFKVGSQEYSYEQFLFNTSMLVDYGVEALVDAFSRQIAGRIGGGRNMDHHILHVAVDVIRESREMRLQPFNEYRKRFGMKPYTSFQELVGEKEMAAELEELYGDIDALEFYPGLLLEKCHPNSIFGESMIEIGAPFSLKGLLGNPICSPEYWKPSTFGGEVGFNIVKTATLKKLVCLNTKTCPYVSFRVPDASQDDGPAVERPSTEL
# method: Inhibition of COX1 peroxidase activity assessed as formation of TMPD at 100 uM by colorimetric analysis
quantity.name: inhibition (%)

Use the examples below as a reference point.
• Cn1c2ccccc2c2cc(C3CC(c4ccc(Br)cc4)=NN3)ccc21 (stereo not given) = 87.4
• Cn1c2ccccc2c2cc(C3CC(c4ccc(F)cc4F)=NN3)ccc21 (stereo not given) = 10.4
• COc1ccc(C2=NNC(c3ccc4c(c3)c3ccccc3n4C)C2)cc1OC (stereo not given) = 24.1

1. COc1ccc(C2=NNC(c3ccc4c(c3)c3ccccc3n4C)C2)cc1 (stereo not given)
2. Cn1c2ccccc2c2cc(C3CC(c4ccc(Cl)cc4)=NN3)ccc21 (stereo not given)
Returns: the argument ( 1 or 2 ) having the larger inhibition. Pick one; state its label.
1
